Hey, just so you know, these numbers are from paper PMC10067842.

Target: ORF3a viroporin of SARS-CoV-2 (Severe acute respiratory syndrome coronavirus 2, UniProt P0DTC3)
Condition Context: cell viability assay, result in words
Readout Name: activity against ORF3a (ORF3a-induced cytotoxicity)

Smiles Structure | Readout Value
O=C1C[C@@H](c2ccc(O)cc2)Oc2cc(O)cc(O)c21 | inactive
O=c1cc(-c2ccc(O)cc2)oc2cc(O)cc(O)c12 | inactive

* * *

Target: UniProt:P0DTC3
Condition Context: cell viability assay, result in words
Readout Name: activity against ORF3a (ORF3a-induced cytotoxicity)

Compound | Readout Value
Oc1ccc(/C=C/c2cc(O)cc(O)c2)cc1 [resveratrol] | inhibitory activity
O=c1c(O)c(-c2ccc(O)cc2)oc2cc(O)cc(O)c12 [kaempferol] | inhibitory activity
CCCCC[C@H](O)CC(=O)CCc1ccc(O)c(OC)c1 [6-gingerol] | inactive
COc1ccc(-c2cc(=O)c3c(OC)c(OC)c(OC)c(OC)c3o2)cc1OC [nobiletin] | inhibitory activity

Continue with the compound presented below.
The reported activity against ORF3a (ORF3a-induced cytotoxicity) of the compound O=c1c(-c2ccc(O)cc2)coc2cc(O)cc(O)c12 [genistein] was inactive

* * *

This section presents molecules with their documented IC50 values.
Target: ORF3a channel of SARS-CoV-2 (Severe acute respiratory syndrome coronavirus 2, UniProt P0DTC3)
Sequence (P0DTC3 1-275): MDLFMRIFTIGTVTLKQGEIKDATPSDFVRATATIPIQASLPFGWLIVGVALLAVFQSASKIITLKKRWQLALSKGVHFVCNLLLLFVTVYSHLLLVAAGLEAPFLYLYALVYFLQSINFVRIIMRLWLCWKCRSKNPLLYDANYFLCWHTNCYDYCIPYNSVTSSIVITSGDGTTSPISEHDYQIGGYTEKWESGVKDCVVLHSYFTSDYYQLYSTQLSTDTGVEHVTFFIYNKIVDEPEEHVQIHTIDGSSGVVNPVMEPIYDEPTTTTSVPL
Measurement Notes: cell-based
Condition Context: whole-cell currents, current differences at −60 mV; read-out: IC50, patch-clamp

// below: answered molecules
Molecule | Readout Value
COc1ccc(-c2cc(=O)c3c(OC)c(OC)c(OC)c(OC)c3o2)cc1OC [nobiletin] | 1.8 nM
O=c1c(O)c(-c2ccc(O)cc2)oc2cc(O)cc(O)c12 [kaempferol] | 2.4 nM
NC12CC3CC(CC(C3)C1)C2 [amantadine, reference compound] | 4.5 nM
O=c1c(O)c(-c2ccc(O)c(O)c2)oc2cc(O)cc(O)c12 [quercetin] | 3.9 nM

Then this molecule:
Reported IC50 for Oc1ccc(/C=C/c2cc(O)cc(O)c2)cc1 [resveratrol] was 1.5 nM

* * *

Target: UniProt:P0DTC3
Measurement Notes: cell-based
Condition Context: IC50, reversing viroporin-induced cell damage
Item-by-item account of IC50
State just the number; it will be interpreted in µM.

Use these answered entries as a reference point.
Compound | Unit Descriptor | IC50
O=c1c(O)c(-c2ccc(O)c(O)c2)oc2cc(O)cc(O)c12 | µM | 2.5
CC(N)C12CC3CC(CC(C3)C1)C2 (stereo not shown) [rimantadine, reference compound] | µM | 4.4

The compound listed as NC12CC3CC(CC(C3)C1)C2 [amantadine, reference compound] shows IC50 equal to 43.7

The compound COc1ccc(-c2cc(=O)c3c(OC)c(OC)c(OC)c(OC)c3o2)cc1OC showed IC50 equal to 3.8
